Test system: WI-38
Test: Antiproliferative activity against human WI-38 cells measured after 48 hrs by MTT assay
Type: functional, cell-based
Conditions: WI-38, 48 h
reported-endpoint: IC50

Please give measured IC50 of the following entry: Nc1ccn([C@@H]2O[C@H](CO)[C@@H](O)[C@@H]2O)c(=O)n1 [CYTARABINE]
> 100 µg/mL

---
Please give measured IC50 of the following entry: C=CCSC(=S)N1CCN(C(=O)c2cc(O)c3c(c2)C(=O)c2cccc(O)c2C3=O)CC1
> 100 µg/mL

Please give measured IC50 of the following entry: Cc1ccc(CSC(=S)N2CCN(C(=O)c3cc(O)c4c(c3)C(=O)c3cccc(O)c3C4=O)CC2)cc1
> 100 µg/mL
